From: PubChem BioAssay (NCI)

Test protocol: NCI Yeast Anticancer Drug Screen. Data for the sgs1 mgt1 strain (AID 161);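 further: 0% = growth of cultures given vehicle only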
Study conditions: S. cerevisiae sgs1 mgt1 strain, at 50.0 µM, hits give high values
The panel holds about 79,000 compounds, 15% with a hit somewhere; the sample as a whole holds those more often.
Property label: growth inhibition (%)
Dear colleague, please return just the value in %, with no unit written.

[in] Fill in: growth inhibition of Nc1ccccc1O.O.O=C(O)C1[O][Sb][O]C1C(=O)O (stereo unspecified) is ___
[out] 27.2

[in] Fill in: growth inhibition of C1OCN2CSCC12 (stereo unspecified) is ___
[out] 30.4

[in] Fill in: growth inhibition of C1CC[N-]CC1.CC(=N\O)/C(C)=N/O.CC(=N\O)/C(C)=N/O.N#C[CH-]CC#N.[Co+2] is ___
[out] 25.3

[in] Fill in: growth inhibition of CC(Cl)[N+](=O)[O-] (stereo unspecified) is ___
[out] 2.55

[in] Fill in: growth inhibition of CCN(CCCl)c1ccc(NC(=O)c2cc(C(=O)NCCN(C)C)cc(C(=O)Nc3ccc(N(CC)CCCl)cc3)c2)cc1 is ___
[out] -15.8

[in] Fill in: growth inhibition of CCN(CC)CC(=O)c1cc2ccccc2c2ccccc12 is ___
[out] 99.4

[in] Fill in: growth inhibition of CC(=O)Nc1ccc(NN=O)cn1 is ___
[out] -15.9

[in] Fill in: growth inhibition of CC1=C(C#N)C2(CCN(C)CC2)C(C#N)=C(C)N1 is ___
[out] 3.05

[in] Fill in: growth inhibition of CC(C)(C)c1ccc(C(C)(C)OO)cc1 is ___
[out] 18.3

[in] Fill in: growth inhibition of Cc1cc(N(CCCl)CCCl)ccc1CN1CCCN(Cc2ccc(N(CCCl)CCCl)cc2C)C1c1ccc(N(CCCl)CCCl)cc1 is ___
[out] 86.8

[in] Fill in: growth inhibition of [Cl][Sn]([Cl])([c]1ccccc1)[c]1ccccc1.c1ccncc1 is ___
[out] 98.8
